Measured melting point by item
MEASURE NAME: melting point

{"COMPOUND": "CC(=O)N1CCC(CCC(=O)c2cc3c4c(c2)CC(=O)N4CCC3)CC1", "MEASURE NAME": "melting point", "MEASUREMENT": "119 to 120 °C"}
{"COMPOUND": "COCCOc1ccc(CCCOC(=O)NS(=O)(=O)NCCc2ccccn2)c(Oc2ncc(C(F)(F)F)cc2Cl)c1", "MEASURE NAME": "melting point", "MEASUREMENT": "91 to 93 °C"}
{"COMPOUND": "Cn1c(=O)sc2nc(-c3ccccc3)cn2c1=O", "MEASURE NAME": "melting point", "MEASUREMENT": "228 to 229 °C"}
{"COMPOUND": "CCCCCCCNC(=O)Nc1ccccc1C(=O)Nc1cccnc1", "MEASURE NAME": "melting point", "MEASUREMENT": "144 °C"}
{"COMPOUND": "CC(=O)C1(O)CCC2C3CC(C)C4=CC(=O)CCC4(C)C3(F)CCC21C (stereo not given)", "MEASURE NAME": "melting point", "MEASUREMENT": "232 to 235 °C"}

----------
Documented melting point across a set of compounds
MEASURE NAME: melting point

{"COMPOUND": "O=C1C2CC(c3ccc([N+](=O)[O-])cc3)(C2)C(=O)N1Cc1ccccc1", "MEASUREMENT": "150 to 152 °C"}
{"COMPOUND": "O=C1C(c2ccc3c(c2)OCO3)c2ccccc2N1Cc1ccc(Cl)cc1 (configuration not stated)", "MEASUREMENT": "161 to 163 °C"}
{"COMPOUND": "CCC(C)(C)Nc1c(NCc2ccc(Cl)cc2Cl)c(=O)c1=O", "MEASUREMENT": "196 to 197 °C"}
{"COMPOUND": "Cc1nc(-n2ccc(OCc3ccc(F)cc3)cc2=O)sc1C(=O)O", "MEASUREMENT": "> 300 °C"}
{"COMPOUND": "O=C(CCc1ccc(NC2=NCCN2)cc1)c1ccc(N2CCOCC2)cc1", "MEASUREMENT": "196 to 198 °C"}
{"COMPOUND": "Oc1ccc(-c2nsnc2Cl)cc1", "MEASUREMENT": "135 to 136 °C"}
{"COMPOUND": "COc1nn(-c2ccc(CBr)c(Cl)c2)nc1Cl", "MEASUREMENT": "141 to 142 °C"}
{"COMPOUND": "FC(F)(F)c1ccc2sc(=Nc3ccccc3)sc2c1", "MEASUREMENT": "122 to 123 °C"}
{"COMPOUND": "CNc1cc(N)c(CCCN)c2c1C(=O)c1ccccc1C2=O", "MEASUREMENT": "142 °C"}
{"COMPOUND": "Cc1cc(C)cc(-n2ncc(C(=O)O)c2C(N)=O)c1", "MEASUREMENT": "223 to 225 °C"}
{"COMPOUND": "COc1cc2c(cc1O)CC(C)(C)N(Cc1cc(OC)c(OC)c(OC)c1)C2", "MEASUREMENT": "143 to 147 °C"}
{"COMPOUND": "CN(c1ccc(C(=O)O)cc1)c1cc2c3c(c1)CCCC3(C)CCC2", "MEASUREMENT": "257 to 258 °C"}
{"COMPOUND": "Cc1cnc2c(c1)C[C@H](Cc1ccc(O)cc1)CC2", "MEASUREMENT": "157 to 158 °C"}
{"COMPOUND": "COc1ccc(S(=O)(=O)C2=C(C(=O)NO)CCC2=CCCc2ccccc2)cc1OC", "MEASUREMENT": "70 to 73 °C"}
{"COMPOUND": "Cc1ccc(Cl)c2c1N(C1CC1)CNS2(=O)=O", "MEASUREMENT": "215 to 217 °C"}
{"COMPOUND": "O=C(CC1CCCCC1=O)c1ccc(Cl)c(Cl)c1 (configuration not stated)", "MEASUREMENT": "78 to 79 °C"}
{"COMPOUND": "COC(=O)c1ccc2ccn(Cc3ccc(OCc4ccc5ccccc5n4)cc3)c2c1", "MEASUREMENT": "125 to 126 °C"}
{"COMPOUND": "COC(=O)C(Cc1ccc(Cl)cc1Cl)=NO", "MEASUREMENT": "97 to 100 °C"}
{"COMPOUND": "O=C(NCCCO)c1ccnc2ccccc12", "MEASUREMENT": "201 to 202 °C"}
{"COMPOUND": "CCN1C(=O)Nc2ccc(Cl)cc2C1(O)c1ccccc1 (configuration not stated)", "MEASUREMENT": "182 to 184 °C"}
{"COMPOUND": "NC(=O)NC[C@@H]1CCCc2cc(S(=O)(=O)c3cccc(F)c3)ccc21", "MEASUREMENT": "155 to 156 °C"}
{"COMPOUND": "CCCOc1ccccc1-c1nc(O)cc(Cl)n1", "MEASUREMENT": "116 °C"}
{"COMPOUND": "CON=Cc1ccc2c(c1)c1c(n2Cc2cccc(F)c2)CCC(NC(=O)C(C)C)C1 (configuration not stated)", "MEASUREMENT": "180 to 182 °C"}
{"COMPOUND": "CCOC(=O)C1Cc2cc(OC)c(OC)cc2C(c2ccccc2)N1C(=O)CNC(=O)OC(C)(C)C (configuration not stated)", "MEASUREMENT": "166 to 167 °C"}
{"COMPOUND": "O=S(=O)(O)NCCC(F)(F)F", "MEASUREMENT": "> 250 °C"}
{"COMPOUND": "COc1ccc2c(c1)C(O)=C(C(=O)Nc1cncc(Cl)n1)N(C)S2(=O)=O", "MEASUREMENT": "289 to 291 °C"}
{"COMPOUND": "Nc1ncc(S(=O)c2ccc(C(F)(F)F)cn2)s1 (configuration not stated)", "MEASUREMENT": "144 to 145 °C"}
{"COMPOUND": "O=C(CCCN1CCC2(CC(O)c3cc(F)ccc32)C1)c1ccc(F)cc1 (configuration not stated)", "MEASUREMENT": "143 to 145 °C"}
{"COMPOUND": "Cc1ccc(C(=S)c2[nH]c3cc(Cl)ccc3c2N)cc1", "MEASUREMENT": "172 to 173 °C"}
{"COMPOUND": "CCCCCCCCCCOc1ccc(-c2ccc(C(C)=O)cc2)cc1", "MEASUREMENT": "102 to 104 °C"}
{"COMPOUND": "CCCCCCCCC(=N)NC(=S)Nc1ccc(Cl)cc1", "MEASUREMENT": "102 to 103 °C"}
{"COMPOUND": "NC(=O)Nc1nc(CC(=O)Nc2cccc(C(F)(F)F)c2)cs1", "MEASUREMENT": "195 to 197 °C"}
{"COMPOUND": "O=c1cc(Cl)sn1-c1ccc(Cl)cc1", "MEASUREMENT": "117 to 119 °C"}
{"COMPOUND": "C=C(F)CONC(=O)c1nc(-c2ccc(Cl)c(OC)c2F)cc(N)c1Cl", "MEASUREMENT": "172 to 174 °C"}
{"COMPOUND": "O=C(Nc1ccc(Oc2cc(Cl)ncn2)cc1)Nc1ccc(Br)c(C(F)(F)F)c1", "MEASUREMENT": "179 to 182 °C"}
{"COMPOUND": "COc1ccc(-c2cc(CO)nn2-c2ccc(S(N)(=O)=O)cc2)cc1I", "MEASUREMENT": "196 to 198 °C"}
{"COMPOUND": "CC(=O)Nc1ccc(C)c(C=O)n1", "MEASUREMENT": "202 °C"}
{"COMPOUND": "COc1ccccc1-c1cc(F)cc(OCc2ccc3c(-c4ccoc4)cc(C#N)nc3c2)c1", "MEASUREMENT": "132 to 134 °C"}
{"COMPOUND": "O=S(=O)(c1ccc(Cl)cc1)C(c1cc(F)ccc1F)c1cc(NCCO)ncc1Cl (configuration not stated)", "MEASUREMENT": "168 to 169 °C"}
{"COMPOUND": "CN(Cc1cc(C(F)(F)F)cc(C(F)(F)F)c1)C(=O)c1cnc2ccc(Cl)cc2c1-c1ccccc1", "MEASUREMENT": "105 to 106 °C"}
{"COMPOUND": "CCCCCCCCCCC(O)C1CCC(C2CCC(C(O)CCCCCCCCCC(O)CC3=CC(C)OC3=O)O2)O1 (configuration not stated)", "MEASUREMENT": "69 to 70 °C"}
{"COMPOUND": "Cc1ccc(C#CC2CCC3C4CCC5CC(O)CCC5(C)C4CCC23C)cc1 (configuration not stated)", "MEASUREMENT": "178 to 180 °C"}
